- Assayed System: human IL-6 (human, UniProt P05231 30-212)
- Sequence (P05231 30-212 limits assumed): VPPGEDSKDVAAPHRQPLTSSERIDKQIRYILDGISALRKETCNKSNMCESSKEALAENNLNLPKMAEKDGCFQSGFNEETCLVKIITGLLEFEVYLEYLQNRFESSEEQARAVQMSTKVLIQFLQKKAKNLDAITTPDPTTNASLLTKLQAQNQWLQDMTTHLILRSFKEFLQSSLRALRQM
- Protocol Text: SPR Biacore, supernatant, Protein A capture, 37 C
- Experimental: Those four positions were selected based on their tolerance for mutations as observed in bacterial and mammalian screens. […] These cultures were centrifuged and supernatants containing secreted antibodies were harvested and diluted in HBS-EP+ running buffer (1:20 ratio). Antibodies were captured on a Protein A chip (GE) by injecting 1:20 cell supernatant dilutions at 10 μL/min for 60 seconds. […]
Property Measured: pKd
Notebook: values listed as pKd are -log10 of the concentration (mol/L).

The binder listed as Anti-IL-6 antibody, heavy chain S35H, G66D, Q99R / light chain M32L, M50D, N52S, M88Q (antibody, IgG1, V domains shown, IgG1; variable domains only; VL is variant III) VH: EVQLVESGGGLVQPGGSLRLSCAASGFTFSPFAMHWVRQAPGKGLEWVAKISPGGSWTYYSDTVTDRFTFSLDTSKSTAYLQMNSLRAEDTAVYYCARRLWGYYALDIWGQGTLVTVSS VL: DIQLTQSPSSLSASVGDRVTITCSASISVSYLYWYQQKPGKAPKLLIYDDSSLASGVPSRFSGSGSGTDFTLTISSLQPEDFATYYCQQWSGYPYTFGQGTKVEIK has a reported pKd of 8.63

The binder listed as Anti-IL-6 antibody, heavy chain S35H, G66D, Q99V / light chain WT (antibody, IgG1, V domains shown, IgG1; variable domains only) VH: EVQLVESGGGLVQPGGSLRLSCAASGFTFSPFAMHWVRQAPGKGLEWVAKISPGGSWTYYSDTVTDRFTFSLDTSKSTAYLQMNSLRAEDTAVYYCARVLWGYYALDIWGQGTLVTVSS VL: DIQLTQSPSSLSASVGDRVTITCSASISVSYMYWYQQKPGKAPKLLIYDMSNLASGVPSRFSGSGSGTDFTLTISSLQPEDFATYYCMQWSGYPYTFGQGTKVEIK has a reported pKd of 8.32
